Quick list: MIC per entry.
# Tested on: Staph.
# PROTOCOL_NOTES: Range of MIC for Staph. strains, including MRSA
# CONDITIONS: Staphylococcus aureus, MRSA, read-out: Range of MIC, Staph. (water)

1. CCCN(CC(=O)Nc1cc(N(C)C)c2c(c1O)C(=O)C1=C(O)[C@]3(O)C(=O)C(C(N)=O)=C(O)[C@@H](N(C)C)[C@@H]3C[C@@H]1C2)C(=O)OCOC(=O)c1ccsc1 [Example 27] | 0.12 to 2 µg/mL
2. CCCN(CC(=O)Nc1cc(N(C)C)c2c(c1O)C(=O)C1=C(O)[C@]3(O)C(=O)C(C(N)=O)=C(O)[C@@H](N(C)C)C3CC1C2)C(=O)OCOC(=O)C1CCCCC1 (some centres unmarked) [Example 33] | 0.12 to 2 µg/mL
3. CCCN(CC(=O)Nc1cc(N(C)C)c2c(c1O)C(=O)C1=C(O)[C@]3(O)C(=O)C(C(N)=O)=C(O)[C@@H](N(C)C)[C@@H]3C[C@@H]1C2)C(=O)OCOC(=O)c1cccs1 [Example 25] | 0.5 to 4 µg/mL

(Q) Would you kindly share the measured MIC for CCCN(CC(=O)Nc1cc(N(C)C)c2c(c1O)C(=O)C1=C(O)[C@]3(O)C(=O)C(C(N)=O)=C(O)[C@@H](N(C)C)[C@@H]3C[C@@H]1C2)C(=O)OCOC(=O)c1ccco1 [Example 31] ?
(A) 0.5 to 4 µg/mL

(Q) Now give it for CCCN(CC(=O)Nc1cc(N(C)C)c2c(c1O)C(=O)C1=C(O)[C@]3(O)C(=O)C(C(N)=O)=C(O)[C@@H](N(C)C)[C@@H]3C[C@@H]1C2)C(=O)OCOC(=O)C1CCC1 [Example 7] too.
(A) 0.5 to 4 µg/mL

* * *

# Tested on: E. faecium GC 2243
# PROTOCOL_NOTES: MIC, broth microdilution
# CONDITIONS: Enterococcus faecium, GC2243, pre-incubation in mouse serum
List of MIC values.
Output spec: scalar in µg/mL, unitless text.

// below: answered compounds
1. CCCCC(=O)OCOC(=O)N(CC(=O)Nc1cc(N(C)C)c2c(c1O)C(=O)C1=C(O)[C@]3(O)C(=O)C(C(N)=O)=C(O)[C@@H](N(C)C)[C@@H]3C[C@@H]1C2)C(C)(C)C [Example 61] | 0.25
2. CN(C)c1cc(NC(=O)CN(C(=O)OCOC(=O)C2CCC2)C(C)(C)C)c(O)c2c1C[C@H]1C[C@H]3[C@H](N(C)C)C(O)=C(C(N)=O)C(=O)[C@@]3(O)C(O)=C1C2=O [Example 62] | 0.5
3. CCCCN(CC(=O)Nc1cc(N(C)C)c2c(c1O)C(=O)C1=C(O)[C@]3(O)C(=O)C(C(N)=O)=C(O)[C@@H](N(C)C)C3CC1C2)C(=O)OCc1oc(=O)oc1C (stereo partly shown) [Example 109] | 0.5

Now consider a different compound.
(Q) // lookup MIC for CN(C)c1cc(NC(=O)CN(C(=O)OCOC(=O)CCC2CCCCC2)C(C)(C)C)c(O)c2c1C[C@H]1C[C@H]3[C@H](N(C)C)C(O)=C(C(N)=O)C(=O)[C@@]3(O)C(O)=C1C2=O [Example 63]
(A) 0.25

* * *

# System: E. coli GC 4559
# PROTOCOL_NOTES: MIC, broth microdilution
# CONDITIONS: Escherichia coli, GC4559, read-out: MINIMAL INHIBITORY CONCENTRATION MIC, Water
// MIC lookup, one value per entry
Provide the reading as a plain figure in µg/mL.

1) CC(C)CC(=O)OCOC(=O)N(CC(=O)Nc1cc(N(C)C)c2c(c1O)C(=O)C1=C(O)[C@]3(O)C(=O)C(C(N)=O)=C(O)[C@@H](N(C)C)[C@@H]3C[C@@H]1C2)C(C)(C)C [Example 53] | 32

Now let's try a different one.
(Q) Would you kindly share the measured MIC for CN(C)c1cc(NC(=O)CN(C(=O)OCOC(=O)c2ccc(F)cc2)C(C)(C)C)c(O)c2c1C[C@H]1C[C@H]3[C@H](N(C)C)C(O)=C(C(N)=O)C(=O)[C@@]3(O)C(O)=C1C2=O [Example 52] ?
(A) 8
